Target: GIPC2, Q8TF65
Sequence (Q8TF65 112-203): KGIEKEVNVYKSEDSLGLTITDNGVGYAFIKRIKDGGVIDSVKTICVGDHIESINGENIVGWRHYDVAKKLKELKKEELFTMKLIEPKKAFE
Assay: holdup assay
Parameters: key: below the threshold = too weak to quantify, mostly under pKd 3.1 to 4
Conditions: plain residues with an end cap or a label only (N-terminal biotin on a linker: ahx)
propertyMeasured: pKd

Would you please look over these solved cases?
> print(dat)
                        binder  propertymeasured                  val
1   AKPQPVDSWV [ARVCF, O00192]               pKd  below the threshold
2    KDECVIATEV [DLL1, O00548]               pKd  below the threshold
3  SAPATLSSRA [PDLIM2, Q96JY6]               pKd  below the threshold
4   HSATSVHTSV [MTMR1, Q13613]               pKd  below the threshold
5   KEYDDELTFF [USH1C, Q9Y6N9]               pKd  below the threshold

// lookup pKd for YNSFLSVTTV [PDZRN3, Q9UPQ7]
below the threshold

// lookup pKd for ADENEQVSAV [RAPGEF6, Q8TEU7]
below the threshold

// lookup pKd for SKKNELFSNL [NHERF1, O14745]
below the threshold

// lookup pKd for VNENQKEYFF [CNTNAP4, Q9C0A0]
below the threshold

// lookup pKd for PKMKLNETSF [SHKBP1, Q8TBC3]
below the threshold
